Test system: ACHN renal
experimental-details: NCI tumour cell line growth inhibition, 48 h
measured-attribute: TGI

Specify TGI for "CC[C@@]1(O)C(=O)OCc2c1cc1n(c2=O)Cc2cc3cc(O)ccc3nc2-1" and stop.
0.457 µM

Using known records, supply TGI for "CCN(CC)CCOc1ccc2c(-c3ccccc3)c(-c3ccc(OC)cc3)c(=O)oc2c1"
20.1 µM

Hello, please tell me recorded TGI for this one: "O=C(O[C@H](/C=C/c1ccccc1)P1(=O)N(Cc2ccccc2)[C@H]2CCCC[C@@H]2N1Cc1ccccc1)c1ccccc1"
> 100 µM

Output measured TGI for this item: COc1ccc(/C=C/c2cc(O)cc(OC3OC(CO)C(O)C(O)C3O)c2)cc1O (stereo unspecified)
> 100 µM

Tell me its TGI given "O=C(CCl)N1CCN(c2ccccc2)CC1" as the entry.
41.1 µM

Tell me its TGI given "C=C1C(=O)O[C@H]2C(=O)[C@H](C)CCC/C(C)=C/CC[C@@]3(C)O[C@@H]3C[C@@H]12" as the entry.
2.63 µM

Identify measured TGI associated with "Cc1ccc2c(-c3ccnc(Nc4cccc(C(F)(F)F)c4)n3)c(-c3ccccc3)nn2n1"
> 25 µM

Note down TGI recorded for "COC1=CC(=O)C2=C(C1=O)[C@H]1CC[C@]3(C)C(=O)CC[C@H]3[C@@H]1CC2"
79.3 µM

Provide measured TGI value, entry: "COc1ccc(NC(=O)CSc2nc(C)nc3c2sc(=S)n3-c2ccccc2)cc1"
> 10 µM

Item CN1CCOC1(C)c1ccccc1 (stereo unspecified) : provide TGI
> 100 µM

Look up and state reported TGI for "CS(=O)(=O)ON1C(=O)c2ccc(N)cc2C1=O"
> 100 µM

State its TGI: "Cc1cc(N(C)c2ccccc2)nc(N(C)c2ccccc2)n1"
95.7 µM

Please list TGI recorded for the compound Cc1ccc(S(=O)(=O)NC(=O)NC(CCCCN)C(=O)O)cc1 (stereo unspecified)
> 100 µM

Return reported TGI. Input compound: "CN1CCC(=C(c2ccc(Cl)cc2)c2ccccn2)CC1"
> 100 µM

Read off the recorded TGI for "CSc1ncc2c(C#N)c3n(C)c4ccccc4n3c(=O)c2n1"
> 100 µM

Look up TGI of "Cc1ncnc2c1ccn2[C@@H]1C[C@H](Oc2cc(C(F)F)c(F)c3c2CNCC3)[C@@H](O)[C@H]1O" and report it.
> 100 µM

Consider the compound OC(Cc1cnnc2ccccc12)C(Cl)(Cl)Cl (stereo unspecified) . State its measured TGI.
> 10 µM

Identify measured TGI corresponding to "CCNCCS(=O)(=O)NC[C@@]1(c2ccccc2)SC(NC(=O)C(C)(C)C)=NN1C(=O)C(C)(C)C"
> 100 µM

Answer with reported TGI of "Cc1c(C(=O)/C=C/c2ccc([N+](=O)[O-])cc2)[n+](=O)c2ccccc2n1[O-]"
> 100 µM

Write down TGI measured for item "O=C(Nc1nc2ccc(OC(F)(F)F)cc2s1)c1ccc(F)cc1"
6.18 µM

Consider the compound "Cc1cc(C)c([O-])c(-[n+]2c(-c3ccccc3)cc(-c3ccccc3)cc2-c2ccccc2)c1" and give its recorded TGI.
16.6 µM
